System: BaF3 L858R
Assay: Ba/F3 cell viability (CellTiter-Glo), EGFR L858R
Assay type: cell-based, murine
Conditions: Mus musculus, 72 hours
measure name: IC50

Consider the compound shown here: COCCc1c[nH]c(=O)c2c(Nc3cccc(Cl)c3OC)c(-c3ccncc3F)[nH]c12 [Compound 3] What is its recorded IC50?
< 100 nM

Consider the compound shown here: COc1c(Cl)cccc1Nc1c(-c2ccnc(C)n2)[nH]c2c(CCO)c[nH]c(=O)c12 [Compound 5] What is its recorded IC50?
< 100 nM

Would you kindly look at the next entry?
Consider the compound shown here: COCCc1c[nH]c(=O)c2c(Nc3cccc(Cl)c3OC)c(-c3ccncn3)[nH]c12 [Compound 2] What is its recorded IC50?
< 100 nM
